These entries and their values trace back to patent US20020183256A1.

test system: B16F10; assay: Growth inhibition test (MTT), cytotoxic action on tumour cell lines; assay type: cell-based, mouse; conditions: B16F10; MTT after day 6; read-out: IC50 values of the cytotoxic action on tumour cell lines, B16F10
From the text: […]
*1 amine or outer side, *2 acyl side, *3 side chain or, on linkers, in order; H or OH if unused. Where a SMILES comes first, the peptide text is derived from it. [ ]: non-standard residue; d: D form. The star is where a group is joined. Camptothecin(20R,20-O) = CC[C@]1(O*)C(=O)OCc2c1cc1n(c2=O)Cc2cc3ccccc3nc2-1; X1 = CCCNC(=O)Nc1cccc(S(=O)(=O)Nc2cccc(C(CC(=O)O)N*)c2)c1; NH(1,4-C6H4)NHCS = S=C(Nc1ccc(N[*:1])cc1)[*:2]; CO = O=C([*:1])[*:2]; GABA = NCCCC(=O)O
recordedEndpoint: IC50

Asked: I'd like to know its IC50. The compound in question is CCCNC(=O)Nc1cccc(S(=O)(=O)Nc2cccc(C(CC(=O)O)NC(=O)Nc3ccc(NC(=S)NCCCC(=O)N4CCC[C@@H]4C(=O)N[C@@H](CC(C)C)C(=O)NCC(=O)N[C@H](CC(C)C)C(=O)N[C@H](Cc4c[nH]cn4)C(=O)N[C@@H](C(=O)O[C@@]4(CC)C(=O)OCc5c4cc4n(c5=O)Cc5cc6ccccc6nc5-4)C(C)C)cc3)c2)c1 (stereo partly drawn) [Example 16] ({X1-CO}-[NH(1,4-C6H4)NHCS][GABA][dP]LG[dL][dH][dV]-{Camptothecin(20R,20-O)})
Given back: 50 nM

---

Target: MMP-2 (Homo sapiens)
Construct: purchased Calbiochem
Sequence (P08253 110-660): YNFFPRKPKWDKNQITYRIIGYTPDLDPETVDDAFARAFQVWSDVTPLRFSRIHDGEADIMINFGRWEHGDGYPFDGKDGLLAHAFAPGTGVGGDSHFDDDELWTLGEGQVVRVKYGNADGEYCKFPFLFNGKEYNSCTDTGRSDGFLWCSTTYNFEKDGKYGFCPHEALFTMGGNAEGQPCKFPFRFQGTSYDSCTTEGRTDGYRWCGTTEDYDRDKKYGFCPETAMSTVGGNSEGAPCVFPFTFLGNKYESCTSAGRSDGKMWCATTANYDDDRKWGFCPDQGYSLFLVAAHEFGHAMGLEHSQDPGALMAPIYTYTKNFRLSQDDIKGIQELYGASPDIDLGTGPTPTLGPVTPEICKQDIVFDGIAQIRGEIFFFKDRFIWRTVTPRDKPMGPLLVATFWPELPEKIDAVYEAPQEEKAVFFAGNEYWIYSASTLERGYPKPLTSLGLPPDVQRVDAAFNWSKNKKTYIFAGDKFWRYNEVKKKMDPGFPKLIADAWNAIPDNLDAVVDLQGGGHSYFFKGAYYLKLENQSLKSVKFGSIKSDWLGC
Test: Cleavage of conjugates by MMP-2 in buffer (HPLC)
Assay type: biochemical
Settings: after 6 h incubation with MMP-2; buffer pH 7.5
*1 amine or outer side, *2 acyl side, *3 side chain or, on linkers, in order; H or OH if unused. Where a SMILES comes first, the peptide text is derived from it. [ ]: non-standard residue; d: D form. The star is where a group is joined. Camptothecin(20R,20-O) = CC[C@]1(O*)C(=O)OCc2c1cc1n(c2=O)Cc2cc3ccccc3nc2-1; X2 = CCCNC(=O)Nc1cccc(S(=O)(=O)Nc2cccc(C(CC(=O)O)NC(=O)Nc3ccc(N*)cc3)c2)c1; X5 = O=C(Nc1cccc(-c2cccc(S(=O)(=O)*)c2)c1)Nc1nc2ccccc2[nH]1; X1 = CCCNC(=O)Nc1cccc(S(=O)(=O)Nc2cccc(C(CC(=O)O)N*)c2)c1; NH(1,4-C6H4)NHCS = S=C(Nc1ccc(N[*:1])cc1)[*:2]; X4 = O=C(O)CC(N[*:1])c1cccc(NC(=S)[*:2])c1; CO = O=C([*:1])[*:2]; GABA = NCCCC(=O)O
recordedEndpoint: MMP-2 mediated cleavage Peak area product/educt x100
Please reply with the number alone, leaving off any unit.

Asked: I'd like to know its MMP-2 mediated cleavage Peak area product/educt x100. The compound in question is CCCNC(=O)Nc1cccc(S(=O)(=O)Nc2cccc(C(CC(=O)O)NC(=O)Nc3ccc(NC(=S)N4CCC[C@@H]4C(=O)N[C@@H](CC(C)C)C(=O)NCC(=O)N[C@H](CC(C)C)C(=O)N[C@H](Cc4c[nH]cn4)C(=O)N[C@@H](C(=O)O[C@@]4(CC)C(=O)OCc5c4cc4n(c5=O)Cc5cc6ccccc6nc5-4)C(C)C)cc3)c2)c1 (single isomer, unassigned) [Example 3]
Given back: 25

Asked: Here is the next compound: CC[C@]1(OC(=O)[C@H](NC(=O)[C@@H](Cc2c[nH]cn2)NC(=O)[C@@H](CC(C)C)NC(=O)CNC(=O)[C@H](CC(C)C)NC(=O)[C@H]2CCCN2C(=S)Nc2cccc(C(CC(=O)O)NS(=O)(=O)c3cccc(-c4cccc(NC(=O)Nc5nc6ccccc6[nH]5)c4)c3)c2)C(C)C)C(=O)OCc2c1cc1n(c2=O)Cc2cc3ccccc3nc2-1 (stereo partly drawn) [Example 5] (X5-[X4][dP]LG[dL][dH][dV]-{Camptothecin(20R,20-O)})
Given back: 5

Asked: Here is the next compound: CCCNC(=O)Nc1cccc(S(=O)(=O)Nc2cccc(C(CC(=O)O)NC(=O)Nc3ccc(NC(=O)NCCCC(=O)N4CCC[C@@H]4C(=O)N[C@@H](CC(C)C)C(=O)NCC(=O)N[C@H](CC(C)C)C(=O)N[C@H](Cc4c[nH]cn4)C(=O)N[C@@H](C(=O)O[C@@]4(CC)C(=O)OCc5c4cc4n(c5=O)Cc5cc6ccccc6nc5-4)C(C)C)cc3)c2)c1 (stereo partly drawn) [Example 17] ({X2-CO-GABA}-[dP]LG[dL][dH][dV]-{Camptothecin(20R,20-O)})
Given back: 16

Asked: Here is the next compound: CCCNC(=O)Nc1cccc(S(=O)(=O)Nc2cccc(C(CC(=O)O)NC(=O)Nc3ccc(NC(=S)N4CCC[C@@H]4C(=O)N[C@@H](CC(C)C)C(=O)NCC(=O)N[C@H](CC(C)C)C(=O)N[C@H](Cc4c[nH]cn4)C(=O)N[C@@H](C(=O)O[C@@]4(CC)C(=O)OCc5c4cc4n(c5=O)Cc5cc6ccccc6nc5-4)C(C)C)cc3)c2)c1 (some centres unmarked) [Example 1]
Given back: 17

Asked: Here is the next compound: CCCNC(=O)Nc1cccc(S(=O)(=O)Nc2cccc(C(CC(=O)O)NC(=O)Nc3ccc(NC(=S)N4CCC[C@@H]4C(=O)N[C@@H](CC(C)C)C(=O)NCC(=O)N[C@H](CC(C)C)C(=O)N[C@H](CSC)C(=O)N[C@@H](C(=O)O[C@@]4(CC)C(=O)OCc5c4cc4n(c5=O)Cc5cc6ccccc6nc5-4)C(C)C)cc3)c2)c1 (stereo partly drawn) [Example 14] ({X1-CO}-[NH(1,4-C6H4)NHCS][dP]LG[dL][dC](Me)[dV]-{Camptothecin(20R,20-O)})
Given back: 5

Asked: Here is the next compound: CCCNC(=O)Nc1cccc(S(=O)(=O)Nc2cccc(C(CC(=O)O)NC(=O)Nc3ccc(NC(=S)N4CCC[C@@H]4C(=O)N[C@@H](CC(C)C)C(=O)NCC(=O)N[C@H](CSC)C(=O)N[C@H](Cc4c[nH]cn4)C(=O)N[C@@H](C(=O)O[C@@]4(CC)C(=O)OCc5c4cc4n(c5=O)Cc5cc6ccccc6nc5-4)C(C)C)cc3)c2)c1 (single isomer, unassigned) [Example 25]
Given back: 9

Asked: Here is the next compound: CCCNC(=O)Nc1cccc(S(=O)(=O)Nc2cccc(C(CC(=O)O)NC(=O)Nc3ccc(NC(=S)N4CCC[C@@H]4C(=O)N[C@@H](CC(C)C)C(=O)NCC(=O)N[C@H](CC(C)C)C(=O)N[C@H](CC(N)=O)C(=O)N[C@@H](C(=O)O[C@@]4(CC)C(=O)OCc5c4cc4n(c5=O)Cc5cc6ccccc6nc5-4)C(C)C)cc3)c2)c1 (single isomer, unassigned) [Example 10]
Given back: 16

Asked: Here is the next compound: CCCNC(=O)Nc1cccc(S(=O)(=O)Nc2cccc(C(CC(=O)O)NC(=O)Nc3ccc(NC(=O)NCCCC(=O)N4CCC[C@@H]4C(=O)N[C@@H](CC(C)C)C(=O)NCC(=O)N[C@H](CC(C)C)C(=O)N[C@H](CC(N)=O)C(=O)N[C@@H](C(=O)O[C@@]4(CC)C(=O)OCc5c4cc4n(c5=O)Cc5cc6ccccc6nc5-4)C(C)C)cc3)c2)c1 (stereo partly drawn) [Example 18] ({X2-CO-GABA}-[dP]LG[dL][dN][dV]-{Camptothecin(20R,20-O)})
Given back: 51
